meta.source: patent US12102648B2

- method_notes: in vitro
- Assay type: in vitro ADME
- assay_conditions: human, Caco-2
readout: efflux ratio at 90 min
Lab note: record just the number, no unit beside it.

May I ask what efflux ratio at 90 min has been recorded for CC(=O)OC[C@H]1O[C@@](C#N)(c2ccc3c(N)ncnn23)[C@H](O)[C@@H]1OCOC(=O)C(C)(C)C ? 0.84

May I ask what efflux ratio at 90 min has been recorded for N#C[C@@]1(c2ccc3c(N)ncnn23)O[C@H](COC(=O)CC2CCOCC2)[C@@H](O)[C@H]1O ? 46

May I ask what efflux ratio at 90 min has been recorded for CC(=O)OC[C@H]1O[C@@](C#N)(c2ccc3c(NC(=O)c4ccccc4)ncnn23)[C@H](O)[C@@H]1O ? 8

May I ask what efflux ratio at 90 min has been recorded for CNc1nc(N)nc2c1ncn2[C@@H]1O[C@H](COC(=O)C(C)C)[C@@H](OC(=O)C(C)C)[C@@]1(C)F ? 0.4
